# System: Plasmodium falciparum
# PROTOCOL DETAILS: GSK_TCMDC: Inhibition of Plasmodium falciparum 3D7 in whole red blood cells, using parasite LDH activity as an index of growth. Test compounds present at 2uM
# Type: functional
I'd appreciate it if you could supply Inhibition values for the items below.

Fill in reported Inhibition for this entry: COc1ccc(CN(C)Cc2cc(C(C)C)c(C)cc2O)cc1F 98%

Please report the measured Inhibition for CCN1CCN(c2ccc(Nc3c4ccccc4nc4ccccc34)cc2)CC1 99%

Identify measured Inhibition corresponding to CN(c1ncc(-c2cccc(CNCc3ccccc3O)c2)cn1)C1CCCCC1 95%

Complete the entry with Inhibition for Cc1nc(Cl)c2c(-c3ccccc3)csc2n1 84%

Answer with reported Inhibition of COc1ccc2[nH]c(C)cc(=NN=Cc3cc(C)ccc3O)c2c1 100%

Give me measured Inhibition, please, for this compound: O=C(Nc1ccc2c(c1)CCC2)N[C@H]1CCN(CCCCCNC(=O)C2CC2c2ccc(Cl)c(Cl)c2)C1 (stereo partly specified) 86%
